B1: library; a variant is named by its letters at N, in order (parent)
chain: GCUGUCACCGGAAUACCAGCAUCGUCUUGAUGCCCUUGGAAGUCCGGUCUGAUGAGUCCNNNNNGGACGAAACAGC

- Variants of: B1
- Assay procedure: FACS-Seq fitted mean relative fluorescence mCherry/BFP without ligand (log10 relative fluorescence); higher = higher reporter protein expression
- Conditions: HEK293T, ligand present: no
Respond with class 1 for FACS-Seq fitted mean (log10) values of 0.8 and above, class 0 for values below.

Illustrative cases are given below, each with its answer.
mutation_label=CAGGA answer_label="class 0"
mutation_label=AGCGC answer_label="class 0"
mutation_label=CCAAC answer_label="class 0"
mutation_label=ACCCC answer_label="class 0"
mutation_label=CAGAC answer_label="class 0"

Req: Check this variant for FACS-Seq fitted mean (log10) at or above 0.8: "UGCCG"
Resp: class 1

Every entry's value here was drawn from the supplement of paper PMC6757056.
